Recorded values, source PubChem BioAssay (NCI).

# Test system: RXF 393 renal
# EXPERIMENTAL PROTOCOL: NCI-60 one-dose screen, 48 h (100 = growth as untreated, 0 = no growth, -100 = all killed)
# REPORTED CONDITIONS: 10 µM unless noted
Compounds without any hit were thinned out: in the full panel of roughly 83,000, 20% have a hit. The source made the active and inactive calls. How the source made its calls: active means growth percent below 10; inactive means the rest.
Exercise: state measured growth for each of the compounds provided.

Consider the following illustrative entries.
Cc1cc(C)c(NC(=O)c2sc3nc4c(cc3c2N)CN(Cc2ccccc2)CC4)c(C)c1 :: 26.1% (inactive)
CCn1cc(C(=O)O)c(=O)c2cc(F)c(N3CCN(S(=O)(=O)c4ccc(Cl)cc4Cl)CC3)cc21 :: 27.9% (inactive)

For each of the items listed, what is its growth?
1. Clc1ccc(-c2nc(-c3ccco3)cn3ccnc23)cc1
2. COc1ccccc1CNCCCN1C(=O)c2ccc3c4c(ccc(c24)C1=O)C(=O)N(CCCNCCCCNCCCCN)C3=O
3. COc1cc(CNC(=O)CCSc2nc3ccccc3c(=O)n2Cc2cc(OC)c(OC)c(OC)c2)cc(OC)c1OC
4. O=C1c2ccccc2C(=O)c2c(N=Nc3sc(=O)[nH]c3S)cccc21
5. COc1ccc(OC)c(-c2ccc(-c3ccccc3N)c3[nH]c4ccccc4c23)c1
6. CCn1cc(C(=O)O)c(=O)c2cc(F)c(N3CCN(S(=O)(=O)c4cccc5ccccc45)CC3)cc21

1. 41.6% (inactive)
2. 22.6% (inactive)
3. 43.6% (inactive)
4. 115% (inactive)
5. 98.2% (inactive)
6. 29% (inactive)

For each of the items listed, what is its growth?
1. NC(C(=O)O)C(O)c1ccc(OCc2ccccc2)c(OCc2ccccc2)c1 (configuration not stated)
2. CC1Cc2c(N(C)C)ncnc2N(C)c2ccc(O)cc21 (configuration not stated)
3. CCN(C(=O)c1cc2ccccc2[nH]1)[C@H]1CCC[C@@H](NCc2ccc(OC)cc2)C1
4. C=CCn1c(C)nc2ccc(Nc3nc(Nc4ccc(F)cc4)nc4ccccc34)cc21

1. 100% (inactive)
2. 95.2% (inactive)
3. 86% (inactive)
4. 66.6% (inactive)

For each of the items listed, what is its growth?
1. COC(=O)CC/C(C)=N\Nc1ccc([N+](=O)[O-])cc1
2. CNC(C)=O
3. Cc1cnc(NC(=O)C(Cc2ccccc2)NC(=O)c2ccccc2)s1 (configuration not stated)
4. Cc1ccc(S(=O)(=O)OCC(=O)Nc2ccc(C(=O)O)c(O)c2)cc1

101% (inactive)
105% (inactive)
50.2% (inactive)
63.1% (inactive)
